Data provenance: patent US9878994B2

- measured.target: CDK4 (Homo sapiens, UniProt P11802)
- Sequence (P11802 whole entry): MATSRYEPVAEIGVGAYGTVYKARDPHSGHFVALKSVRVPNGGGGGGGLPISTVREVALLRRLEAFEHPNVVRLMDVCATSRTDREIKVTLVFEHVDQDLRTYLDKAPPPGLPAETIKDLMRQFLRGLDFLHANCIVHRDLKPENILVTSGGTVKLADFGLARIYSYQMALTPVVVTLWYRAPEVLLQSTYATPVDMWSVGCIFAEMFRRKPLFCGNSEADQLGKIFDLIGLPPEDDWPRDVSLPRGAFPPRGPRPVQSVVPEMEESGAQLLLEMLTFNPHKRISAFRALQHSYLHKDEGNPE
- Sequence (P24385 whole entry partner): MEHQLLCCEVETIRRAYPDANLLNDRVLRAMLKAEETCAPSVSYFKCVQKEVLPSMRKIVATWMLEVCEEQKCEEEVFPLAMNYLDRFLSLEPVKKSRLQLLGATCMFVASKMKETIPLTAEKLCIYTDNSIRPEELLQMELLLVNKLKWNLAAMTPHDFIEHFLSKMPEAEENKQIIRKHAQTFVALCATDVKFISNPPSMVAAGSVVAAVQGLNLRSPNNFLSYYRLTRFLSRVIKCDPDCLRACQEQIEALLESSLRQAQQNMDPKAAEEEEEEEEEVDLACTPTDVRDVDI
- assay.explanation: CDK4 biochemical assay (33P-ATP filter-binding kinase assay)
- condition.set: Cyclin D1, 1 μM 33P-ATP, 2 hours at room temperature; read-out: IC50 in CDK4 assay
measurement.label: IC50

[in] Give the measured IC50 of CCN1CCN(Cc2ccc(Nc3ncc(F)c(-c4ccc5nn(C)c(C(C)C)c5c4)n3)nc2)CC1 .
[out] < 1 nM

====

- measured.target: CDK6 (Homo sapiens)
- Sequence (Q00534 whole entry, one chain of several): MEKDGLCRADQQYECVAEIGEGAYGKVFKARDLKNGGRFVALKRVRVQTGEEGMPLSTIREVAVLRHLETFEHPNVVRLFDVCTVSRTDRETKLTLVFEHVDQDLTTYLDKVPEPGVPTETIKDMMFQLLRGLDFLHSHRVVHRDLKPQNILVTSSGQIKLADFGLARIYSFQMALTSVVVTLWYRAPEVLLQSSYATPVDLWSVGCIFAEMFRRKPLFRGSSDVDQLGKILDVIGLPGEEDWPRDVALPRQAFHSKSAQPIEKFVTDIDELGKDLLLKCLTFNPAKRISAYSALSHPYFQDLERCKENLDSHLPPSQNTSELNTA
- assay.explanation: CDK6 biochemical assay (33P-ATP filter-binding kinase assay)
- condition.set: Cyclin D1, 1 μM 33P-ATP, 2 hours at room temperature; read-out: IC50 in CDK6 assay
- Description: Cyclin Dl was added to freshly prepared reaction buffer [20 mM Hepes (pH 7.5), 10 mM MgCl2, 1 mM EGTA, 0.02% Brij 35, 0.02 mg/mL BSA, 0.1 mM Na3VO4, 2 mM DTT, 1% DMSO]. CDK4 or CDK6 was delivered to the substrate solution and gently mixed. […] The reactions were spotted onto P81 ion exchange paper and the kinase activity detected by filter-binding method. […]
pIC50: −log10 of the molar value.
measurement.label: pIC50

[in] Lab note: need pIC50 for CCN1CCN(Cc2ccc(Nc3ncc(F)c(-c4ccc5nn(C)c(C(C)C)c5c4)n3)nc2)CC1 on CDK6 (Homo sapiens), anyone have it?
[out] > 9.00
